biological target: HiBit-BRG1 fusion protein (Homo sapiens, UniProt P51532); construct: expressed in transfected cells; assay: HiBiT-BRG1 cell-based degradation assay (Nano-Glo HiBiT Lytic Detection, 24 h); details: HeLa cells expressing HiBit-BRG1 and LgBit, read-out: BRG1 HiBit Degradation IC50
Sequence (P51532 whole entry, the tested form may be a part): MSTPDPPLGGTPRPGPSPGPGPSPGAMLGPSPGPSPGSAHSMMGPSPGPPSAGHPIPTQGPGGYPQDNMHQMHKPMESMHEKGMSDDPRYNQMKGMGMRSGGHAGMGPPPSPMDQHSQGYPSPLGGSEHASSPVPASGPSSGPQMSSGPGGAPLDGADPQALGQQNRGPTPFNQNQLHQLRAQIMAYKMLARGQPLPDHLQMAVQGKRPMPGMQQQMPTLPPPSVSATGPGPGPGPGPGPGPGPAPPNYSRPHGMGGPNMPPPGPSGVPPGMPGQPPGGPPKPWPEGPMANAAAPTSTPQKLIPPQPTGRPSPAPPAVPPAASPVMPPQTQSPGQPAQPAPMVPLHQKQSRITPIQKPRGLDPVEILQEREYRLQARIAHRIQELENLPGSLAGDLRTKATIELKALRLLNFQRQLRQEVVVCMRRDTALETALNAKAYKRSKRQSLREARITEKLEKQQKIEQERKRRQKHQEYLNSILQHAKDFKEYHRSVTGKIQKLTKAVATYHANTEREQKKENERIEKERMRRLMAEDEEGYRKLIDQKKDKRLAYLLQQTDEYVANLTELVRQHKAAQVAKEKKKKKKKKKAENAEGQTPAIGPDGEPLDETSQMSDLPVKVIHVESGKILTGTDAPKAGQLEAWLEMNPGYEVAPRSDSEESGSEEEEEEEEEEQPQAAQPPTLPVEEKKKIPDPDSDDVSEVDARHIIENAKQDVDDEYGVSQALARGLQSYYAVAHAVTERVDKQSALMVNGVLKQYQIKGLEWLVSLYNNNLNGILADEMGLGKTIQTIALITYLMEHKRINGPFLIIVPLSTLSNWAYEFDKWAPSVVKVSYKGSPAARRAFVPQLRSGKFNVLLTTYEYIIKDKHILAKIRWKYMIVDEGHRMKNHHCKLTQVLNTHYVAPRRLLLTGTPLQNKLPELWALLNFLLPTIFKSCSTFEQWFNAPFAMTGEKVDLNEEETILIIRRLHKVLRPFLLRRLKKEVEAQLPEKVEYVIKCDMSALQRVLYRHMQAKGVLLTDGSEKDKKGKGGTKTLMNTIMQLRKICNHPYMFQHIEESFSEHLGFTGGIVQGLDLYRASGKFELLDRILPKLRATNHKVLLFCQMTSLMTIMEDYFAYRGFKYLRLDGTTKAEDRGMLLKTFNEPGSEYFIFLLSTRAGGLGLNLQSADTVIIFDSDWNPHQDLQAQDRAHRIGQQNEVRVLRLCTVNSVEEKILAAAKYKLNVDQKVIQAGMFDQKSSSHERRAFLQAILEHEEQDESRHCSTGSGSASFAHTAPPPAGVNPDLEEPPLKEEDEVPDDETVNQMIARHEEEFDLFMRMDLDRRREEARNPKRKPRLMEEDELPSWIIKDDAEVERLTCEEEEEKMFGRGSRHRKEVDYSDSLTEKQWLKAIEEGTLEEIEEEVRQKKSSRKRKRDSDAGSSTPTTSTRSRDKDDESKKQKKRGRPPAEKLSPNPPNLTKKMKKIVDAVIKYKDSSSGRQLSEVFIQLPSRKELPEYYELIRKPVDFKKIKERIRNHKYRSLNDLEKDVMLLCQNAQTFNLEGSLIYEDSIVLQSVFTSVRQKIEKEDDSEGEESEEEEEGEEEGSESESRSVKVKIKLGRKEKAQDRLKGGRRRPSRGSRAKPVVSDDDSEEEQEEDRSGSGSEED
Where a name gives a salt, the structure may show the parent alone.
value-kind: DC50

Illustrative cases are given below, each with its answer.
CS(=O)(=O)n1ccc(C(=O)N[C@@H](COCc2ccc(CNC(=O)CCCCCCCOc3cccc4c3C(=O)N(C3CCC(=O)NC3=O)C4=O)cc2)C(=O)Nc2nc(-c3ccccc3)cs2)c1 (some centres unmarked) = 0.1 to 1 µM
Cc1ncsc1-c1ccc(CNC(=O)[C@@H]2C[C@@H](O)CN2C(=O)[C@@H](NC(=O)N2CC(C(=O)NCc3cccc(-c4cccc(-c5csc(NC(=O)CNC(=O)c6ccn(S(C)(=O)=O)c6)n5)c4)c3)C2)C(C)(C)C)cc1 = > 10 µM
CS(=O)(=O)n1ccc(C(=O)NCC(=O)Nc2nc(-c3cccc(-c4ccnc(C5(C(=O)NCCOCCOCCNc6cccc7c6C(=O)N(C6CCC(=O)NC6=O)C7=O)CC5)c4)c3)cs2)c1 (centres unmarked) = 1 to 10 µM
Cc1ncsc1-c1ccc(CNC(=O)[C@@H]2C[C@@H](O)CN2C(=O)[C@@H](NC(=O)CCN2CC(C(=O)NCc3cccc(-c4cccc(-c5csc(NC(=O)CNC(=O)c6ccn(S(C)(=O)=O)c6)n5)c4)c3)C2)C(C)(C)C)cc1 [Compound 154, formate] = > 10 µM

Proceeding to the next compound to report its DC50.
In: Provide DC50, system HiBit-BRG1 fusion protein (Homo sapiens, UniProt P51532), entry CS(=O)(=O)n1ccc(C(=O)N[C@@H](CCOCCCC(=O)N2CC3(CCN(CCCNc4ccc5c(c4)C(=O)N(C4CCC(=O)NC4=O)C5=O)CC3)C2)C(=O)Nc2nc(-c3ccccc3)cs2)c1 (some centres unmarked)
Out: > 10 µM

----------
biological target: HiBit-BRM fusion protein (Homo sapiens, UniProt P51531); construct: expressed in transfected cells; experiment: HiBiT-BRM cell-based degradation assay (Nano-Glo HiBiT Lytic Detection, 24 h); details: HeLa cells expressing HiBiT-BRM, read-out: BRM HiBit Degradation IC50
Sequence (P51531 whole entry, the tested form may be a part): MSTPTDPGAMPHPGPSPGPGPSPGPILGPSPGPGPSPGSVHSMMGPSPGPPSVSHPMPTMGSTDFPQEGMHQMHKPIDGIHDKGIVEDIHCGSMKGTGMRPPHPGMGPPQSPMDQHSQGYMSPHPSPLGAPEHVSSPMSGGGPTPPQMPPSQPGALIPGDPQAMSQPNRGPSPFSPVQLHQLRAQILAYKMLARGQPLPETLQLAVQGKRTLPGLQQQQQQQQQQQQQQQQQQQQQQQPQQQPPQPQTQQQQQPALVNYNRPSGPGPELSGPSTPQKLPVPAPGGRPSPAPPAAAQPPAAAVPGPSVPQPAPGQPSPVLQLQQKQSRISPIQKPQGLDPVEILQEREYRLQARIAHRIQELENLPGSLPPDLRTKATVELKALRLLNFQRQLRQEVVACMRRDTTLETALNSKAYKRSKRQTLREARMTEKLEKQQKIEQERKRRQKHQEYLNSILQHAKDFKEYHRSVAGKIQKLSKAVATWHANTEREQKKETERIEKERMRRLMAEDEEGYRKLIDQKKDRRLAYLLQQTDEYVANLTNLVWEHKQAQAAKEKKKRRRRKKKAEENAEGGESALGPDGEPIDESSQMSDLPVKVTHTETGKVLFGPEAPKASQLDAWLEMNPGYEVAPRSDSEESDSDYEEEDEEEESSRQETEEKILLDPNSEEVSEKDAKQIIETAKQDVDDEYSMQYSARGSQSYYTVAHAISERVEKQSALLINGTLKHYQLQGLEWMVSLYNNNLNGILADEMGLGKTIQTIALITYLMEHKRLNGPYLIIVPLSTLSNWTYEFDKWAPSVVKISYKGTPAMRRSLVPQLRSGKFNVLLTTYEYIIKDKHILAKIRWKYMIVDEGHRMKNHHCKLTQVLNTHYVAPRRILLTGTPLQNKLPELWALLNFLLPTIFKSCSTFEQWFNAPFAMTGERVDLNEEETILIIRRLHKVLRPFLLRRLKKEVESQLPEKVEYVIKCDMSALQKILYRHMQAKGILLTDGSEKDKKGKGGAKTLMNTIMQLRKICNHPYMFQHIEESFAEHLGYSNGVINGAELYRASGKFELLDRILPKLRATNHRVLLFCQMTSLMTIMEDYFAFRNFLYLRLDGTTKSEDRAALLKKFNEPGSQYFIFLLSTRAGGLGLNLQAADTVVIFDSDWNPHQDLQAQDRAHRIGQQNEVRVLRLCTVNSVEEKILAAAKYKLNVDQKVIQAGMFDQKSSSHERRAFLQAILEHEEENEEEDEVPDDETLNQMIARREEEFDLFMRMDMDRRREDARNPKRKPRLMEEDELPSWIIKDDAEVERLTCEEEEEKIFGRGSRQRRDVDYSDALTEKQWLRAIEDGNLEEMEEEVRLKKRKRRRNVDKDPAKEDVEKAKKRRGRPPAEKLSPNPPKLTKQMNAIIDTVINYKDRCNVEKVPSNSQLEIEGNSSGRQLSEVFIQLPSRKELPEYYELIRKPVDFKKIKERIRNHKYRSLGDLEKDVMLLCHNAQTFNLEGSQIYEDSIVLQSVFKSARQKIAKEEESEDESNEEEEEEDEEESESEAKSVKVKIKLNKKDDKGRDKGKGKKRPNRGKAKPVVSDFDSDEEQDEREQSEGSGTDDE
Task for the reader: assign each of the following molecules its reported DC50.

CS(=O)(=O)n1ccc(C(=O)N[C@@H](COCc2ccc(C(=O)NCCCCCNc3ccc4c(c3)C(=O)N(C3CCC(=O)NC3=O)C4=O)cc2)C(=O)Nc2nc(-c3ccccc3)cs2)c1 (stereo partly shown) = 0.1 to 1 µM
CS(=O)(=O)n1ccc(C(=O)N[C@@H](COCc2ccc(C(=O)NCCOCCOCCNC(=O)COc3cccc4c3C(=O)N(C3CCC(=O)NC3=O)C4=O)cc2)C(=O)Nc2nc(-c3ccccc3)cs2)c1 (stereo partly shown) = > 10 µM
Cc1ncsc1-c1ccc(CNC(=O)[C@@H]2C[C@@H](O)CN2C(=O)[C@@H](NC(=O)CCCCC(=O)NCc2cccc(-c3cccc(-c4csc(NC(=O)CNC(=O)c5ccn(S(C)(=O)=O)c5)n4)c3)c2)C(C)(C)C)cc1 = > 10 µM

Proceeding to the next molecule to report its DC50.
In: Provide DC50, system HiBit-BRM fusion protein (Homo sapiens, UniProt P51531), entry `Cc1ncsc1-c1ccc(CNC(=O)[C@@H]2C[C@@H](O)CN2C(=O)[C@@H](NC(=O)CCCCCCCCCCC(=O)NCc2ccc(COC[C@H](NC(=O)c3ccn(S(C)(=O)=O)c3)C(=O)Nc3nc(-c4ccccc4)cs3)cc2)C(C)(C)C)cc1`
Out: > 10 µM

----------
target: HiBit-BRG1 fusion protein (Homo sapiens, UniProt P51532); construct: expressed in transfected cells; assay: HiBiT-BRG1 cell-based degradation assay (Nano-Glo HiBiT Lytic Detection, 24 h); conditions: HeLa, HeLa cells expressing HiBit-BRG1 and LgBit, top dose 30 μM, read-out: BRG1 HiBit Degradation Maximum measured
value-kind: Dmax

Illustrative cases are given below, each with its answer.
CS(=O)(=O)n1ccc(C(=O)NCC(=O)Nc2nc(-c3cccc(-c4ccnc(N5CCN(C(=O)CCCCCCCCCCNc6ccc7c(c6)C(=O)N(C6CCC(=O)NC6=O)C7=O)CC5)c4)c3)cs2)c1 (centres unmarked) = > 75%
CS(=O)(=O)n1ccc(C(=O)N[C@@H](COCCCC(=O)NCCCCCCCCNc2cccc3c2C(=O)N(C2CCC(=O)NC2=O)C3=O)C(=O)Nc2nc(-c3ccccc3)cs2)c1 (some centres unmarked) = < 50%
Cc1c(C(=O)NCC(=O)Nc2nc(-c3cccc(-c4ccnc(N(C)CC(=O)N5CCC(C6CCN(C(=O)COc7cccc8c7C(=O)N(C7CCC(=O)NC7=O)C8=O)CC6)CC5)c4)c3)cs2)cn(S(=O)(=O)C(C)C)c1C (centres unmarked) = < 50%
CS(=O)(=O)n1ccc(C(=O)N[C@@H](COCc2ccc(C(=O)NCCOC3CN(c4ccc5c(c4)C(=O)N(C4CCC(=O)NC4=O)C5=O)C3)cc2)C(=O)Nc2nc(-c3ccccc3)cs2)c1 (some centres unmarked) = > 75%

Proceeding to the next compound to report its Dmax.
In: Output Dmax of CS(=O)(=O)n1ccc(C(=O)N[C@@H](CCCCNC(=O)C2CCN(CCOc3ccc4c(c3)C(=O)N(C3CCC(=O)NC3=O)C4=O)CC2)C(=O)Nc2nc(-c3ccccc3)cs2)c1 (some centres unmarked)
Out: < 50%

----------
molecular target: HiBit-BRM fusion protein (Homo sapiens, UniProt P51531); construct: expressed in transfected cells; assay: HiBiT-BRM cell-based degradation assay (Nano-Glo HiBiT Lytic Detection, 24 h); conditions: HeLa cells expressing HiBiT-BRM, read-out: BRM HiBit Degradation IC50
value-kind: DC50

CS(=O)(=O)n1ccc(C(=O)N[C@@H](CCOCCCC(=O)NCCOC2CN(c3ccc4c(c3)C(=O)N(C3CCC(=O)NC3=O)C4=O)C2)C(=O)Nc2nc(-c3ccccc3)cs2)c1 (stereo partly drawn) = > 10 µM
Cc1ncsc1-c1ccc(CNC(=O)[C@@H]2C[C@@H](O)CN2C(=O)[C@@H](NC(=O)COCCOCCNC(=O)CCCOC[C@H](NC(=O)c2ccn(S(C)(=O)=O)c2)C(=O)Nc2nc(-c3ccccc3)cs2)C(C)(C)C)cc1 = > 10 µM

Please give DC50 for each item listed below.
1. CN(CCNC(=O)COc1cccc2c1C(=O)N(C1CCC(=O)NC1=O)C2=O)CCNC(=O)c1ccc(COC[C@H](NC(=O)c2ccn(S(C)(=O)=O)c2)C(=O)Nc2nc(-c3ccccc3)cs2)cc1 (stereo partly drawn)
2. CS(=O)(=O)n1ccc(C(=O)NCC(=O)Nc2nc(-c3cccc(-c4ccnc(OCCNC(=O)C5CC5CNC(=O)COc5cccc6c5C(=O)N(C5CCC(=O)NC5=O)C6=O)c4)c3)cs2)c1 (stereo not drawn)
3. CS(=O)(=O)n1ccc(C(=O)N[C@@H](COCc2ccc(C(=O)NCCOCc3cccc(COCCOc4ccc5c(c4)C(=O)N(C4CCC(=O)NC4=O)C5=O)c3)cc2)C(=O)Nc2nc(-c3ccccc3)cs2)c1 (stereo partly drawn)
4. CS(=O)(=O)n1ccc(C(=O)NCC(=O)Nc2nc(-c3cccc(-c4ccnc(C5(C(=O)NCCNc6ccc7c(c6)CN(C6CCC(=O)NC6=O)C7=O)CC5)c4)c3)cs2)c1 (stereo not drawn)
5. Cc1ncsc1-c1ccc(CNC(=O)[C@@H]2C[C@@H](O)CN2C(=O)[C@@H](NC(=O)CCCCCNC(=O)C2(c3cc(-c4cccc(-c5csc(NC(=O)CNC(=O)c6ccn(S(C)(=O)=O)c6)n5)c4)ccn3)CC2)C(C)(C)C)cc1
6. Cc1c(C(=O)NCC(=O)Nc2nc(-c3cccc(-c4ccnc(N(C)CC(=O)NCCOCCOCCNc5cccc6c5C(=O)N(C5CCC(=O)NC5=O)C6=O)c4)c3)cs2)cn(S(=O)(=O)C(C)C)c1C (stereo not drawn)
7. CC(C)(C(=O)NCCOCCOCCNc1cccc2c1C(=O)N(C1CCC(=O)NC1=O)C2=O)n1ccc(-c2cccc(-c3csc(NC(=O)CNC(=O)c4ccn(S(C)(=O)=O)c4)n3)c2)n1 (stereo not drawn)

Out:
> 10 µM
> 10 µM
0.1 to 1 µM
< 0.1 µM
0.1 to 1 µM
> 10 µM
> 10 µM

----------
molecular target: HiBit-BRG1 fusion protein (Homo sapiens, UniProt P51532); construct: expressed in transfected cells; test: HiBiT-BRG1 cell-based degradation assay (Nano-Glo HiBiT Lytic Detection, 24 h); conditions: HeLa, HeLa cells expressing HiBit-BRG1 and LgBit, top dose 30 μM, read-out: BRG1 HiBit Degradation Maximum measured
Task for the reader: assign each of the following molecules its reported Dmax.

CS(=O)(=O)n1ccc(C(=O)N[C@@H](CCOCCCC(=O)N2CCN(CCCCCOc3ccc4c(c3)C(=O)N(C3CCC(=O)NC3=O)C4=O)CC2)C(=O)Nc2nc(-c3ccccc3)cs2)c1 (some centres unmarked) [Compound 254] = < 50%
CS(=O)(=O)n1ccc(C(=O)NCC(=O)Nc2nc(-c3cccc(-c4ccnc(C5(C(=O)NCCOCCOCCNc6ccc7c(c6)C(=O)N(C6CCC(=O)NC6=O)C7=O)CC5)c4)c3)cs2)c1 (centres unmarked) [Compound 101] = < 50%
CS(=O)(=O)n1ccc(C(=O)NCC(=O)Nc2nc(-c3cccc(-c4ccnc(C5(C(=O)NCCS(=O)(=O)CCNc6cccc7c6C(=O)N(C6CCC(=O)NC6=O)C7=O)CC5)c4)c3)cs2)c1 (centres unmarked) [Compound 102] = 50 to 75%

Please give Dmax for each item listed below.
1. Cc1ncsc1-c1ccc(CNC(=O)[C@@H]2C[C@@H](O)CN2C(=O)[C@@H](NC(=O)CCCC(=O)NCc2cccc(-c3cccc(-c4csc(NC(=O)CNC(=O)c5ccn(S(C)(=O)=O)c5)n4)c3)c2)C(C)(C)C)cc1 [Compound 56]
2. CS(=O)(=O)n1ccc(C(=O)N[C@@H](CCOCCCC(=O)NCCOCCOCCNC(=O)COc2cccc3c2C(=O)N(C2CCC(=O)NC2=O)C3=O)C(=O)Nc2nc(-c3ccccc3)cs2)c1 (some centres unmarked) [Compound 223]

Out:
< 50%
< 50%
